target: human Kv7.2+3 (Homo sapiens, UniProt O43525+O43526); construct: expressed in transfected cells; host or cells: HEK293; experiment: FLIPR-based characterization of Kv7.2+3 modulators (thallium influx, BTC-AM); assay type: cell-based; details: maximal response relative to the reference (retigabine) response; HEK293 cells over-expressing human Kv7.2+3; read-out: Efficacy
Label Yes when Emax is at or above 90%; anything below gets No.

Assess whether reported Emax for `O=C(Nc1ccc(NCc2ccc(F)cc2)nc1N1CCOCC1)c1cccnc1F` sits at 90% or higher. No

Assess whether reported Emax for `CC(C)(Nc1ccc(NC(=O)Cc2cc(F)cc(F)c2)c(N2CCOCC2)n1)c1ccc(F)cc1` sits at 90% or higher. No

* * *

biological target: human Kv7.2+3 (Homo sapiens, UniProt O43525+O43526); assay: FLIPR-based characterization of Kv7.2+3 modulators (thallium influx, BTC-AM); details: HEK293 cells over-expressing human Kv7.2+3; Tl+ influx FLIPR; 50% of channel activity compared to retigabine control responses
Provide the recorded EC50 for the entries that follow.
One number for each entry, in nM.

In the examples that follow, each entry is paired with its recorded EC50.
query.smiles | test.readout | unit.tag | reported.value
O=C(Cc1ccccc1F)Nc1ccc(NCc2ccc(F)cc2)nc1N1CCOCC1 | EC50 | nM | 210
O=C(CSc1ccc(F)cc1)Nc1ccc(NCc2ccc(F)cc2)nc1N1CCOCC1 | EC50 | nM | 2700
COc1ccc(CC(=O)Nc2ccc(NCc3ccc(F)cc3)nc2N2CCOCC2)cc1 | EC50 | nM | 840

Hi team, please reply with EC50 for each item in this list.
1. O=C(Cc1ccc(Cl)nc1)Nc1ccc(NCc2ccc(F)cc2)nc1N1CCOCC1
2. COc1cccc(CC(=O)Nc2ccc(NCc3ccc(F)cc3)nc2N2CCOCC2)c1
3. O=C(Cc1cc(F)cc(F)c1)Nc1ccc(NCc2ccc(F)cc2)nc1N1CCOCC1
4. O=C(Cc1ccc(Cl)cc1Cl)Nc1ccc(NCc2ccc(F)cc2)nc1N1CCOCC1
5. O=C(Cc1ccc(Cl)cc1)Nc1ccc(NCc2ccc(F)cc2)nc1N1CCOCC1
6. O=C(Cc1cccc(F)c1)Nc1ccc(NCc2ccc(F)cc2)nc1N1CCOCC1
7. Cc1ccccc1C(=O)Nc1ccc(NCc2ccc(F)cc2)nc1N1CCOCC1
8. O=C(Nc1ccc(NCc2ccc(F)cc2)nc1N1CCOCC1)c1cccnc1F

[900, 330, 130, 4100, 230, 35, 10000, 11000]

* * *

Provide the recorded Emax for the entries that follow.
target: human Kv7.2+3 (Homo sapiens, UniProt O43525+O43526); construct: expressed in transfected cells; host or cells: HEK293; assay: FLIPR-based characterization of Kv7.2+3 modulators (thallium influx, BTC-AM); type: cell-based; conditions: maximal response relative to the reference (retigabine) response; HEK293 cells over-expressing human Kv7.2+3; read-out: Efficacy
The answer consists of two parts: a number and, after it, its unit.

In the examples that follow, each entry is paired with its recorded Emax.
query.smiles | reported.value
COc1cccc(CC(=O)Nc2ccc(NCc3ccc(F)cc3)nc2N2CCOCC2)c1 | 88%
O=C(Cc1ccc2c(c1)OCO2)Nc1ccc(NCc2ccc(F)cc2)nc1N1CCOCC1 | 104%
O=C(Cc1cccc(C(F)(F)F)c1)Nc1ccc(NCc2ccc(F)cc2)nc1N1CCOCC1 | 87%
O=C(Cc1ccc(Cl)cc1Cl)Nc1ccc(NCc2ccc(F)cc2)nc1N1CCOCC1 | 47%

Next:
State its Emax on human Kv7.2+3 (Homo sapiens, UniProt O43525+O43526): `COc1ccc(CC(=O)Nc2ccc(NCc3ccc(F)cc3)nc2N2CCOCC2)cc1` 98%

* * *

molecular target: human Kv7.2+3 (Homo sapiens, UniProt O43525+O43526); construct: expressed in transfected cells; host or cells: HEK293; assay: FLIPR-based characterization of Kv7.2+3 modulators (thallium influx, BTC-AM); assay type: cell-based; settings: HEK293 cells over-expressing human Kv7.2+3; Tl+ influx FLIPR; 50% of channel activity compared to retigabine control responses
test.readout: EC50 (µM)
Numbers only, in µM.

In the examples that follow, each entry is paired with its recorded EC50.
query.smiles | test.readout | reported.value
O=C(Cc1cccc(C(F)(F)F)c1)Nc1ccc(NCc2ccc(F)cc2)nc1N1CCOCC1 | EC50 | 0.59
O=C(Cc1ccc2c(c1)OCO2)Nc1ccc(NCc2ccc(F)cc2)nc1N1CCOCC1 | EC50 | 0.78
CC(C)(Nc1ccc(NC(=O)Cc2cc(F)cc(F)c2)c(N2CCOCC2)n1)c1ccc(F)cc1 | EC50 | 5.4

Next:
State its EC50 on human Kv7.2+3 (Homo sapiens, UniProt O43525+O43526): `O=C(COc1cccc(F)c1)Nc1ccc(NCc2ccc(F)cc2)nc1N1CCOCC1` 6.6
